Where these numbers come from: the supplement of paper PMC6555819

system: THRa:RXRa (NR concentration 90 nM, RXRa partner concentration 90 nM); assay: PBM binding z-score (relative to random genomic background probes); higher = stronger binding; sequences stand for … in GC…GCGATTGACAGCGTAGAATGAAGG
Threshold check on PBM binding z-score: at or above 4 gives MET, strictly below gives NOT MET.

[
  {
    "SEQUENCE CONTENT": "TAGCCTAGGTCATGGGGGCCAGTATAGTGTCGGC",
    "CLASSIFICATION": "NOT MET"
  },
  {
    "SEQUENCE CONTENT": "TAGCCTAGGTCTTGGGCCAGTATACCACGCGAAC",
    "CLASSIFICATION": "NOT MET"
  },
  {
    "SEQUENCE CONTENT": "CCTACTGGGCCAGAGGTCATTGATTCCAATGCTC",
    "CLASSIFICATION": "NOT MET"
  },
  {
    "SEQUENCE CONTENT": "ATCTCTAGGTAAAGATAGTTCATTGAATGCAAAT",
    "CLASSIFICATION": "NOT MET"
  },
  {
    "SEQUENCE CONTENT": "CCTTACGGGTCACAGACAGGTTATAGCATTTGGA",
    "CLASSIFICATION": "NOT MET"
  },
  {
    "SEQUENCE CONTENT": "CCTAGTTGGTCAGGAGGTCTCACACCGGATATGA",
    "CLASSIFICATION": "NOT MET"
  },
  {
    "SEQUENCE CONTENT": "CGAACTAGCTCATTGACAGGACAGTGAATAGTAA",
    "CLASSIFICATION": "NOT MET"
  },
  {
    "SEQUENCE CONTENT": "GCTTGTAGATCAAGCTTAAGAAAGACTAAGCTAA",
    "CLASSIFICATION": "NOT MET"
  },
  {
    "SEQUENCE CONTENT": "CAAACTAGGTCACGAAAGGTCAGAGTCGAATGAC",
    "CLASSIFICATION": "MET"
  },
  {
    "SEQUENCE CONTENT": "ACTAGTTGGTCAGCTGAGGTCACAAACAATTCGG",
    "CLASSIFICATION": "MET"
  },
  {
    "SEQUENCE CONTENT": "CCTGCTAGGTGATGGTCAGCTAATCTACAGTATG",
    "CLASSIFICATION": "NOT MET"
  }
]

* * *

Recorded PBM binding z-score by entry
test system: LXRb:RXRa (NR concentration 270 nM, RXRa partner concentration 90 nM); test: PBM binding z-score (relative to random genomic background probes); higher = stronger binding; sequences stand for … in GC…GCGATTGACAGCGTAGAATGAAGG

[
  {
    "SEQUENCE CONTENT": "CCTTACGGGCCACTGACAGGTTATAGCATTTGGA",
    "ASSAY TARGET": "LXRb:RXRa (NR concentration 270 nM, RXRa partner concentration 90 nM)",
    "PBM binding z-score": -0.0299
  },
  {
    "SEQUENCE CONTENT": "TCGAGTATGTTACCAATGGGGCATTCAGCTTTCT",
    "ASSAY TARGET": "LXRb:RXRa (NR concentration 270 nM, RXRa partner concentration 90 nM)",
    "PBM binding z-score": 0.416
  },
  {
    "SEQUENCE CONTENT": "CGTCCAAGGTCAGCAGGTCAGTGCAAGCGACGTG",
    "ASSAY TARGET": "LXRb:RXRa (NR concentration 270 nM, RXRa partner concentration 90 nM)",
    "PBM binding z-score": 2.8
  },
  {
    "SEQUENCE CONTENT": "TCTTGTAGATCAGCAGGTGAAGAAAGCTGGCCAA",
    "ASSAY TARGET": "LXRb:RXRa (NR concentration 270 nM, RXRa partner concentration 90 nM)",
    "PBM binding z-score": -0.0895
  },
  {
    "SEQUENCE CONTENT": "ACTAGCAGGCAAAGGGTCACTCAAGATTAGTCCG",
    "ASSAY TARGET": "LXRb:RXRa (NR concentration 270 nM, RXRa partner concentration 90 nM)",
    "PBM binding z-score": 2.94
  },
  {
    "SEQUENCE CONTENT": "AATACAGGGTCATCGTAGGCCAGAGTTCGCACAG",
    "ASSAY TARGET": "LXRb:RXRa (NR concentration 270 nM, RXRa partner concentration 90 nM)",
    "PBM binding z-score": 4.63
  },
  {
    "SEQUENCE CONTENT": "TAGCCTAGGTCATTGGCCAGTATACCACGCGAAC",
    "ASSAY TARGET": "LXRb:RXRa (NR concentration 270 nM, RXRa partner concentration 90 nM)",
    "PBM binding z-score": 2.61
  },
  {
    "SEQUENCE CONTENT": "TCAGGCAGGTGAAGGTAACTCAGGTACGCAGTCG",
    "ASSAY TARGET": "LXRb:RXRa (NR concentration 270 nM, RXRa partner concentration 90 nM)",
    "PBM binding z-score": 0.558
  },
  {
    "SEQUENCE CONTENT": "GCTAGCAGGCCATTTGGGTCAGTCAATGACGGGC",
    "ASSAY TARGET": "LXRb:RXRa (NR concentration 270 nM, RXRa partner concentration 90 nM)",
    "PBM binding z-score": -0.399
  },
  {
    "SEQUENCE CONTENT": "TCTTGTAGAACAACAGGAGGTTAAGAAAGATCGA",
    "ASSAY TARGET": "LXRb:RXRa (NR concentration 270 nM, RXRa partner concentration 90 nM)",
    "PBM binding z-score": 0.901
  },
  {
    "SEQUENCE CONTENT": "AGAATGAGGATATACGTAGATCAGGGAAGAAAGT",
    "ASSAY TARGET": "LXRb:RXRa (NR concentration 270 nM, RXRa partner concentration 90 nM)",
    "PBM binding z-score": -0.479
  },
  {
    "SEQUENCE CONTENT": "CATACAGGGTCAGCTAGGACAGAGTAGGGACGGC",
    "ASSAY TARGET": "LXRb:RXRa (NR concentration 270 nM, RXRa partner concentration 90 nM)",
    "PBM binding z-score": 2.29
  }
]
